The values you see were collected from patent US20140256613A1.

molecular target: T1, recombinant human TLR4-MD2 protein (R&D Systems) (human, UniProt O00206 24-631; Q9Y6Y9 17-160); test: fluorescence polarization, 2 µM FITC-SPA4 peptide with increasing recombinant TLR4-MD2, one-site binding fit, one representative experiment
T1 construct: range 24-631;range 17-160; Bought protein, described as a mixture of recombinant human TLR4 and MD2 proteins expressed in NS0 cells; also called recombinant-TLR4-MD2 protein; soluble recombinant TLR4-MD2
T1 sequence (O00206 other isoform, or with tags, fused parts or gaps limits assumed, form in doubt, chain 1 of 2): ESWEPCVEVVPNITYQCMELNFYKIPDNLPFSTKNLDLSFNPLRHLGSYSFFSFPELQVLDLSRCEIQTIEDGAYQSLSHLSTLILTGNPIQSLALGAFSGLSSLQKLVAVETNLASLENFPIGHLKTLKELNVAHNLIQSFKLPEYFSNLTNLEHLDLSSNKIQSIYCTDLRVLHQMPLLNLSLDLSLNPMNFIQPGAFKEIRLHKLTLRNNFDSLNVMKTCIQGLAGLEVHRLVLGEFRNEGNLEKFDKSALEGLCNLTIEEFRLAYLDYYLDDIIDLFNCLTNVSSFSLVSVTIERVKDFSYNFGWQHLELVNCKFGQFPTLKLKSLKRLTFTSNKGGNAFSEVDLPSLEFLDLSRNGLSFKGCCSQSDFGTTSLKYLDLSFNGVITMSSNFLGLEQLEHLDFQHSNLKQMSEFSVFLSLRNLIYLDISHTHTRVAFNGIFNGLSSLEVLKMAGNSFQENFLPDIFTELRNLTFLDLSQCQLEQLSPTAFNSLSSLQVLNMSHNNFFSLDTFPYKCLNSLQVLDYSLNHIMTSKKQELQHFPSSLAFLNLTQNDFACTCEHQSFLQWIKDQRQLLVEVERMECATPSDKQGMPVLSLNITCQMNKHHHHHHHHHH
T1 sequence (Q9Y6Y9 other isoform, or with tags, fused parts or gaps limits assumed, form in doubt, chain 2 of 2): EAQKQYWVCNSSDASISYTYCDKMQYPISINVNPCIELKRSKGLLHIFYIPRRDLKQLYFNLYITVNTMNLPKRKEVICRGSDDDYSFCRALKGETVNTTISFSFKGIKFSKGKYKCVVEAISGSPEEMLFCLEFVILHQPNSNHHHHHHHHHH
Primed or numbered codes have the meaning given here. No end group written: not given here. FITC′ = fluorescein isothiocyanate; Ahx = NCCCCCC(=O)O
readout: Kd
Kindly report the value followed by its unit.

State the recorded Kd for this entry: {FITC′-Ahx}-GDFRYSDGTPVNYTNWYRGE (also called fluorescein isothiocyanate conjugated SPA4 peptide) [FITC-SPA4 peptide]
314 nM
